- System: rat liver mitochondria (RLM)
- measurement_notes: Mitochondrial transmembrane electric potential (safranine fluorescence)
- Format: biochemical
- assay_conditions: Succinate, 2.5 μM
- Experimental: In an embodiment, and as an example, the toxicity effects of some AntiOxBENs and MitoQ on the mitochondrial bioenergetics, namely on RLM Δψ and respiration parameters, were measured. […] In addition, the mitochondrial oxidative phosphorylation coupling index, known as respiratory control ratio (RCR, state 3/state 4 respiration) and ADP/O index (the coupling between ATP synthesis and oxygen consumption) were also calculated. […]
measure_name: Lag Phase (s)
# output: bare number, implied unit s

O=C(NCCCCCC[P+](c1ccccc1)(c1ccccc1)c1ccccc1)c1ccc(O)c(O)c1.[Br-] [AntiOxBEN1] yielded Lag Phase of 120.0

Looking up O=C(CCCCC[P+](c1ccccc1)(c1ccccc1)c1ccccc1)NCCCCCCNC(=O)c1cc(O)c(O)c(O)c1.[Br-] [AntiOxBEN3] , I found its Lag Phase recorded as 132.6

response.value for COC1=C(OC)C(=O)C(CCCCCCCCCC[P+](c2ccccc2)(c2ccccc2)c2ccccc2)=C(C)C1=O.CS(=O)(=O)[O-] [MitoQ, reference compound] (field: Lag Phase) = 104.8

Note to self: Lag Phase recorded for O=C(NCCCCCC[P+](c1ccccc1)(c1ccccc1)c1ccccc1)c1cc(O)c(O)c(O)c1.[Br-] [AntiOxBEN2] was 115.4

----------
- System: rat liver mitochondria (RLM)
- measurement_notes: Mitochondrial transmembrane electric potential (safranine fluorescence)
- Type: biochemical
- assay_conditions: Glutamate/Malate, 2.5 μM
measure_name: Lag Phase (s)
Could you give me the number in s? Just the number is fine.

Reported Lag Phase of O=C(CCCCC[P+](c1ccccc1)(c1ccccc1)c1ccccc1)NCCCCCCNC(=O)c1cc(O)c(O)c(O)c1.[Br-] [AntiOxBEN3] : 137.5

The recorded Lag Phase for O=C(NCCCCCC[P+](c1ccccc1)(c1ccccc1)c1ccccc1)c1cc(O)c(O)c(O)c1.[Br-] [AntiOxBEN2] is 124.7

Entry COC1=C(OC)C(=O)C(CCCCCCCCCC[P+](c2ccccc2)(c2ccccc2)c2ccccc2)=C(C)C1=O.CS(=O)(=O)[O-] [MitoQ, reference compound] , Lag Phase reported as 86.5

// Lag Phase lookup, compound = O=C(NCCCCCC[P+](c1ccccc1)(c1ccccc1)c1ccccc1)c1ccc(O)c(O)c1.[Br-] [AntiOxBEN1] , result: 131.8

----------
Hi there, I'd appreciate the recorded Maximum potential (ΔΨ in - mV) for every entry that follows.
- Test system: rat liver mitochondria (RLM)
- measurement_notes: Mitochondrial transmembrane electric potential (safranine fluorescence)
- Assay type: biochemical
- assay_conditions: Glutamate/Malate, 2.5 μM

get_value(item= O=C(NCCCCCC[P+](c1ccccc1)(c1ccccc1)c1ccccc1)c1cc(O)c(O)c(O)c1.[Br-] [AntiOxBEN2] , readout=Maximum potential (ΔΨ in - mV)) returns 217.8 ± 18.8 - mV

Sample O=C(CCCCC[P+](c1ccccc1)(c1ccccc1)c1ccccc1)NCCCCCCNC(=O)c1cc(O)c(O)c(O)c1.[Br-] [AntiOxBEN3] ; Maximum potential (ΔΨ in - mV) observed: 221.1 ± 20.2 - mV

Record COC1=C(OC)C(=O)C(CCCCCCCCCC[P+](c2ccccc2)(c2ccccc2)c2ccccc2)=C(C)C1=O.CS(=O)(=O)[O-] [MitoQ, reference compound] , field Maximum potential (ΔΨ in - mV): 195.7 ± 10.8 - mV

Quick note, Maximum potential (ΔΨ in - mV) for O=C(NCCCCCC[P+](c1ccccc1)(c1ccccc1)c1ccccc1)c1ccc(O)c(O)c1.[Br-] [AntiOxBEN1] landed at 216.8 ± 18.9 - mV

----------
- measurement_notes: ABTS radical cation scavenging activity
- Type: biochemical
- assay_conditions: ethanol, 15 min
For each entry below, report its IC50 value.
Could you give me the number in µM? Just the number is fine.

Entry O=C(O)c1cc(O)c(O)c(O)c1 ; IC50 = 7.8

O=C(NCCCCCC[P+](c1ccccc1)(c1ccccc1)c1ccccc1)c1ccc(O)c(O)c1.[Br-] [AntiOxBEN1] has a reported IC50 of 29.9

The value of IC50 measured for the compound Cc1c(C)c2c(c(C)c1O)CCC(C)(C(=O)O)O2 (stereo not drawn) turned out to be 31.1

O=C(NCCCCCC[P+](c1ccccc1)(c1ccccc1)c1ccccc1)c1cc(O)c(O)c(O)c1.[Br-] [AntiOxBEN2] has a reported IC50 of 10.3

The compound identified as O=C(CCCCC[P+](c1ccccc1)(c1ccccc1)c1ccccc1)NCCCCCCNC(=O)c1cc(O)c(O)c(O)c1.[Br-] [AntiOxBEN3] registered its IC50 at 9.6

// recorded IC50 for O=C(O)c1ccc(O)c(O)c1 : 30.1

----------
- Test system: rat liver mitochondria (RLM)
- measurement_notes: Mitochondrial transmembrane electric potential (safranine fluorescence)
- Format: biochemical
- assay_conditions: Glutamate/Malate, 10 μM
Record form. Attribute: Maximum potential (ΔΨ in - mV). Fill in for each entry.

Field Maximum potential (ΔΨ in - mV) (rat liver mitochondria (RLM)), entry O=C(CCCCC[P+](c1ccccc1)(c1ccccc1)c1ccccc1)NCCCCCCNC(=O)c1cc(O)c(O)c(O)c1.[Br-] [AntiOxBEN3] : 227.5 ± 26.3 - mV

Item: COC1=C(OC)C(=O)C(CCCCCCCCCC[P+](c2ccccc2)(c2ccccc2)c2ccccc2)=C(C)C1=O.CS(=O)(=O)[O-] [MitoQ, reference compound] | System: rat liver mitochondria (RLM) | Maximum potential (ΔΨ in - mV): 113.8 ± 10.2 - mV

Reading of Maximum potential (ΔΨ in - mV) for O=C(NCCCCCC[P+](c1ccccc1)(c1ccccc1)c1ccccc1)c1ccc(O)c(O)c1.[Br-] [AntiOxBEN1] with rat liver mitochondria (RLM): 200.4 ± 16.0 - mV

Tested system rat liver mitochondria (RLM); Maximum potential (ΔΨ in - mV) recorded for O=C(NCCCCCC[P+](c1ccccc1)(c1ccccc1)c1ccccc1)c1cc(O)c(O)c(O)c1.[Br-] [AntiOxBEN2] was 209.5 ± 19.1 - mV

----------
- Tested on: rat liver mitochondria (RLM)
- measurement_notes: Mitochondrial transmembrane electric potential (safranine fluorescence)
- Type: biochemical
- assay_conditions: Glutamate/Malate, 5 μM
Field: Repolarization Potential (ΔΨ in - mV). Provide a value for each of the compounds that follow.

The reported value for O=C(CCCCC[P+](c1ccccc1)(c1ccccc1)c1ccccc1)NCCCCCCNC(=O)c1cc(O)c(O)c(O)c1.[Br-] [AntiOxBEN3] in terms of Repolarization Potential (ΔΨ in - mV) is 216.4 ± 21.3 - mV

Item: O=C(NCCCCCC[P+](c1ccccc1)(c1ccccc1)c1ccccc1)c1ccc(O)c(O)c1.[Br-] [AntiOxBEN1] | Repolarization Potential (ΔΨ in - mV): 219.0 ± 22.9 - mV

Memo: O=C(NCCCCCC[P+](c1ccccc1)(c1ccccc1)c1ccccc1)c1cc(O)c(O)c(O)c1.[Br-] [AntiOxBEN2] , reported Repolarization Potential (ΔΨ in - mV): 209.0 ± 17.8 - mV

Lookup result for COC1=C(OC)C(=O)C(CCCCCCCCCC[P+](c2ccccc2)(c2ccccc2)c2ccccc2)=C(C)C1=O.CS(=O)(=O)[O-] [MitoQ, reference compound] ; measured Repolarization Potential (ΔΨ in - mV): 185.0 ± 9.4 - mV

----------
- Test system: rat liver mitochondria (RLM)
- measurement_notes: Mitochondrial transmembrane electric potential (safranine fluorescence)
- Assay type: biochemical
- assay_conditions: Glutamate/Malate, 2.5 μM
- Experimental: In an embodiment, and as an example, the toxicity effects of some AntiOxBENs and MitoQ on the mitochondrial bioenergetics, namely on RLM Δψ and respiration parameters, were measured. […] In addition, the mitochondrial oxidative phosphorylation coupling index, known as respiratory control ratio (RCR, state 3/state 4 respiration) and ADP/O index (the coupling between ATP synthesis and oxygen consumption) were also calculated. […]
Please go through the items and note down their Repolarization Potential (ΔΨ in - mV).

Data point: O=C(CCCCC[P+](c1ccccc1)(c1ccccc1)c1ccccc1)NCCCCCCNC(=O)c1cc(O)c(O)c(O)c1.[Br-] [AntiOxBEN3] ; Repolarization Potential (ΔΨ in - mV) = 217.0 ± 17.7 - mV

Sample O=C(NCCCCCC[P+](c1ccccc1)(c1ccccc1)c1ccccc1)c1ccc(O)c(O)c1.[Br-] [AntiOxBEN1] ; Repolarization Potential (ΔΨ in - mV) observed: 212.3 ± 18.2 - mV

Kindly note the recorded Repolarization Potential (ΔΨ in - mV) for O=C(NCCCCCC[P+](c1ccccc1)(c1ccccc1)c1ccccc1)c1cc(O)c(O)c(O)c1.[Br-] [AntiOxBEN2] , which is 216.8 ± 17.9 - mV

Repolarization Potential (ΔΨ in - mV) in this record for COC1=C(OC)C(=O)C(CCCCCCCCCC[P+](c2ccccc2)(c2ccccc2)c2ccccc2)=C(C)C1=O.CS(=O)(=O)[O-] [MitoQ, reference compound] : 191.1 ± 11.7 - mV
